From: ChEMBL document CHEMBL1268914

# assayTarget: Calcium/calmodulin-dependent protein kinase type IV (Homo sapiens)
# Sequence (Q16566 whole entry): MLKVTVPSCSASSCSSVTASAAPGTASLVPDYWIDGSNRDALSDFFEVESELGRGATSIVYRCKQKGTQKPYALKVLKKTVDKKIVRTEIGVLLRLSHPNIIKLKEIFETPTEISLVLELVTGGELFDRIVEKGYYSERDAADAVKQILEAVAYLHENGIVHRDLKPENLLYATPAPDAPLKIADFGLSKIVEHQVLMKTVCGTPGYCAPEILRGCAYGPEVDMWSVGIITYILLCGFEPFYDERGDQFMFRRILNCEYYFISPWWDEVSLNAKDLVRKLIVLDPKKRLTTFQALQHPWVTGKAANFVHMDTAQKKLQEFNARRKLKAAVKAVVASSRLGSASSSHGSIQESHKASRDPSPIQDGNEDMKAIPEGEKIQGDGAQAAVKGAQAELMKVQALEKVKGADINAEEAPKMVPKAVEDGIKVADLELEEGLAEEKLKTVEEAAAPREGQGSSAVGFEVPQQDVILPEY
# procedureSummary: Inhibition of CAMK4
Listed here: items and their measured IC50.
experimentalEndpoint: IC50

>  <chemicalStructure>
O=S(=O)(Nc1nc(NCCc2ccccc2)nc2c1CN(Cc1ccccc1)CC2)c1ccc2ccccc2c1

>  <assayTarget>
Calcium/calmodulin-dependent protein kinase type IV (Homo sapiens)

>  <experimentalValue>
> 60 µM

$$$$
>  <chemicalStructure>
Cc1c(Cl)cccc1S(=O)(=O)Nc1nc(NCCc2ccccc2)nc2c1CN(Cc1ccccc1)CC2

>  <assayTarget>
Calcium/calmodulin-dependent protein kinase type IV (Homo sapiens)

>  <experimentalValue>
> 60 µM

$$$$
